Cited source for all entries: the CheMixHub viscosity set

Measured viscosity by item
assay: xn = mol fraction of the nth substance listed; details: 308.15 K; 103 kPa; x1 = 0.65
Give a bare numeral; the unit mPa·s is implied.

# example entries with known answers
compound="C[Si]1(C)O[Si](C)(C)O[Si](C)(C)O[Si](C)(C)O1 + CCCCCCCCCCCCC" unit_symbol=mPa·s observed_result=1.43
compound="C[Si]1(C)O[Si](C)(C)O[Si](C)(C)O[Si](C)(C)O1 + CCCCCCCCCCCCCC" unit_symbol=mPa·s observed_result=1.522
compound="C[Si]1(C)O[Si](C)(C)O[Si](C)(C)O[Si](C)(C)O1 + CCCCCCCCCCCC" unit_symbol=mPa·s observed_result=1.345

// next item, viscosity requested
Qu. For C[Si]1(C)O[Si](C)(C)O[Si](C)(C)O[Si](C)(C)O1 + CCCCCCCCCC , what is its reported viscosity?
Ans. 1.15

* * *

assay: xn = mol fraction of the nth substance listed; conditions: 308.15 K; 103 kPa; x1 = 0.1
MEASURE: viscosity (mPa·s)
# value in mPa·s; strip the unit string

Illustrative cases are given below, each with its answer.
molecule="C[Si]1(C)O[Si](C)(C)O[Si](C)(C)O[Si](C)(C)O1 + CCCCCCCCCCCC" measure=viscosity observed_result=1.113
molecule="C[Si]1(C)O[Si](C)(C)O[Si](C)(C)O[Si](C)(C)O1 + CCCCCCCCCC" measure=viscosity observed_result=0.753
molecule="C[Si]1(C)O[Si](C)(C)O[Si](C)(C)O[Si](C)(C)O1 + CCCCCCCCCCCCC" measure=viscosity observed_result=1.343

Qu. Consider the molecule shown here: C[Si]1(C)O[Si](C)(C)O[Si](C)(C)O[Si](C)(C)O1 + CCCCCCCCCCCCCC What is its recorded viscosity?
Ans. 1.579

* * *

Here, each record is paired with measured viscosity data.
test: xn = mol fraction of the nth substance listed; conditions: 298.15 K; 103 kPa; x1 = 0.85
Numeric only. Scale: mPa·s

Check out these entries, answers already filled in.
compound="C[Si]1(C)O[Si](C)(C)O[Si](C)(C)O[Si](C)(C)O1 + CCCCCCCCCCCCC" observed_result=1.89
compound="C[Si]1(C)O[Si](C)(C)O[Si](C)(C)O[Si](C)(C)O1 + CCCCCCCCCC" observed_result=1.699
compound="C[Si]1(C)O[Si](C)(C)O[Si](C)(C)O[Si](C)(C)O1 + CCCCCCCCCCCC" observed_result=1.828

Then this compound:
Qu. Return reported viscosity; argument: C[Si]1(C)O[Si](C)(C)O[Si](C)(C)O[Si](C)(C)O1 + CCCCCCCCCCCCCC
Ans. 1.922

* * *

assay: xn = mol fraction of the nth substance listed; conditions: 318.15 K; 103 kPa; x1 = 0.95
MEASURE: viscosity (mPa·s)
Your answer should be a plain number; it is taken to be in mPa·s.

compound="C[Si]1(C)O[Si](C)(C)O[Si](C)(C)O[Si](C)(C)O1 + CCCCCCCCCC" observed_result=1.356
compound="C[Si]1(C)O[Si](C)(C)O[Si](C)(C)O[Si](C)(C)O1 + CCCCCCCCCCCC" observed_result=1.39
compound="C[Si]1(C)O[Si](C)(C)O[Si](C)(C)O[Si](C)(C)O1 + CCCCCCCCCCCCC" observed_result=1.405

Okay, now this compound:
Qu. Consider the compound C[Si]1(C)O[Si](C)(C)O[Si](C)(C)O[Si](C)(C)O1 + CCCCCCCCCCCCCC and give its measured viscosity.
Ans. 1.406
